# experimentSummary: gradient 5% acetonitrile 3 min, to 50% in 2 min, to 85% in 15 min, held 3 min, 100 µL/min
# conditionParameters: column: Zorbax Extend-C18 2.1 x 50 mm; eluents: water / acetonitrile, 0.1% formic acid
One threshold, 700 s, splits the recorded RP-LC retention time values: lower ones are rule met, equal or higher ones are rule not met.

# example entries with known answers
> print(dat)
                                   compound           cat
1  CCC(CC)C(=O)Nc1c(-c2ccc(F)cc2)nc2cc(C)ccn12      rule met
2  Cc1noc2nc(CCC(=O)N3CCc4ccccc43)nc(N3CCCCCC3)c12  rule not met
3                     O=c1[nH]c2ccc(O)cc2o1      rule met
4  CCCCOC(=O)c1[nH]c2c(c1C)C(=O)CC(c1cc(OC)c(OC)c(OC)c1)C2 (configuration not stated)  rule not met

// query Decide: RP-LC retention time of Cc1ccc(S(=O)(=O)NC(=O)Nc2nccs2)cc1 strictly below 700 s?
// result rule not met

// query Decide: RP-LC retention time of Cc1oc(-c2ccc(NC(=O)c3ccc4c(c3)OCO4)cc2)nc1Cn1cccn1 strictly below 700 s?
// result rule not met

// query Decide: RP-LC retention time of CN(C)c1nc2ncn3c(=O)n(CC(=O)NC4CCCCC4)nc3c2s1 strictly below 700 s?
// result rule met

// query Decide: RP-LC retention time of COc1ccc(OC)c(NC(=O)Cn2cccc2-c2nnc(-c3ccccc3)o2)c1 strictly below 700 s?
// result rule not met

// query Decide: RP-LC retention time of C=CCN1C(=O)COc2ccc(-c3csc(NC(=O)CCCC)n3)cc21 strictly below 700 s?
// result rule not met

// query Decide: RP-LC retention time of O=C([C@@H]1COCC(=O)N1Cc1ccccc1)N1CCN(Cc2ccc3c(c2)OCO3)CC1 strictly below 700 s?
// result rule met
